- Tested on: WT Mtb Erdman
- Method Notes: Disk zone of inhibition assay
- Format: cell-based
- Condition Description: Mycobacterium tuberculosis, 240 h, radius of zone absent of bacterial growth, 5 μl of 100 mM stock in DMSO on disk, Middlebrook 7H10 agar, 10 days at 37° C.
Metric Name: zone of inhibition at 100000 µM (stock)

INPUT: Supply zone of inhibition at 100000 µM (stock) value. Item: CCc1nc(NCCCO)c2cc(C)sc2n1
OUTPUT: 0.75 mm

INPUT: # return recorded zone of inhibition at 100000 µM (stock) for entry CCc1nc(N2CCCCC2)c2cc(C)sc2n1
OUTPUT: 5 mm

INPUT: Query zone of inhibition at 100000 µM (stock) for CCc1nc(NC2CCC2)c2cc(C)sc2n1
OUTPUT: 10 mm

INPUT: For the compound CCc1nc(N(CC)CC)c2cc(C)sc2n1 , give its measured zone of inhibition at 100000 µM (stock) value.
OUTPUT: 4 mm

INPUT: Respond only with zone of inhibition at 100000 µM (stock) recorded for Cc1cc2c(NC3CC3)nc(C(C)C)nc2s1
OUTPUT: 19 mm

INPUT: Look up and report measured zone of inhibition at 100000 µM (stock) for this entry: FC(F)(F)c1nc(NC2CC2)c2ccsc2n1
OUTPUT: 1.8 mm

INPUT: Assign zone of inhibition at 100000 µM (stock) to the following record: CCc1nc(NCCOC)c2cc(C)sc2n1
OUTPUT: 0 mm

INPUT: In one line, give reported zone of inhibition at 100000 µM (stock) of the entry CCc1nc(NCCCC(F)(F)F)c2ccsc2n1 .
OUTPUT: 14 mm

INPUT: Give the reported value of zone of inhibition at 100000 µM (stock) for this record: CCCCNc1nc(C)nc2sc3c(c12)CCCC3
OUTPUT: 7 mm

INPUT: Return zone of inhibition at 100000 µM (stock) (reported value) for this compound: CCc1nc(NCCCOC)c2cc(C)sc2n1
OUTPUT: 4 mm

INPUT: Name the recorded zone of inhibition at 100000 µM (stock) of the item CCCCN(C)c1nc(CC)nc2sc(C)cc12 in your answer.
OUTPUT: 10 mm
